Values compiled from patent US20240390340A1.

# target.or.test.system: KRAS G12V (Homo sapiens, UniProt P01116, G12V)
# Sequence (P01116 1-188 isoform P01116-2 G12V): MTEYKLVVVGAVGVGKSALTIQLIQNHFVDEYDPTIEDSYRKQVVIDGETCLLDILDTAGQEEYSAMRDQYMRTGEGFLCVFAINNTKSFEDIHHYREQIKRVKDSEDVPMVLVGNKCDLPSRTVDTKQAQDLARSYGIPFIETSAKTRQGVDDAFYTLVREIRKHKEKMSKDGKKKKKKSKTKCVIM
# experimental.protocol: GDP-GTP exchange assay (bodipy-GDP/GppNHp, SOS1), KRAS G12V
# Format: biochemical
# stated.conditions: Table H, column G12V; for compounds isolated as several atropisomers/diastereoisomers the value for the most potent isomer is quoted; read-out: KRAS G12V exchange assay IC50
measure.name: IC50

>>> measured("Cc1nc2c(F)c(-c3cccc(Cl)c3Cl)c(CCC#N)cc2c2c1cc([C@H]1C[C@H](n3nccn3)CN1C(=O)C1CC1)n2[C@H]1[C@H]2CN[C@@H]1C2")
"≤ 100 nM"
>>> measured("COc1cc(O[C@H]2C[C@H](c3cc4c([C@@H](C)O)nc5c(F)c(-c6cccc(Cl)c6Cl)c(CCC#N)cc5c4n3[C@H]3[C@H]4CN[C@@H]3C4)N(C(=O)C3CC3)[C@@H]2C)c(F)cn1")
"≤ 100 nM"
>>> measured("Cc1nc2c(F)c(-c3cccc(Cl)c3Cl)c(CCC#N)cc2c2c1cc([C@H]1C[C@H](OCc3nccs3)C3(CC3)N1C(=O)C1CC1)n2[C@H]1[C@H]2CN[C@@H]1C2")
"≤ 100 nM"

###

# target.or.test.system: KRAS G12V (Homo sapiens, UniProt P01116, G12V)
# experimental.protocol: GDP-GTP exchange assay (bodipy-GDP/GppNHp, SOS1), KRAS G12V
# Assay type: biochemical
# stated.conditions: KRAS G12V mutant; value for the most potent isomer quoted for certain compounds; read-out: G12V (KRAS G12V exchange assay IC50)
measure.name: IC50

>>> measured("CCc1cnn([C@H]2C[C@H](c3cc4c(C)nc5c(F)c(-c6cccc(Cl)c6Cl)c(CCC#N)cc5c4n3[C@H]3[C@H]4CN[C@@H]3C4)N(C(=O)C3CC3)C2)c1")
"≤ 100 nM"
>>> measured("Cc1nc2c(F)c(-c3cccc(Cl)c3Cl)c(CCC#N)cc2c2c1cc([C@H]1C[C@H](OCc3ccn(C(F)(F)F)n3)CN1C(=O)C1(C)CC1)n2[C@H]1[C@H]2CN[C@@H]1C2")
"≤ 100 nM"
>>> measured("CC[C@@H]1[C@@H](Oc2cc(OC)ncc2F)C[C@H](c2cc3c([C@@H](C)O)nc4c(F)c(-c5cccc(Cl)c5Cl)c(CCC#N)cc4c3n2[C@H]2[C@H]3CN[C@@H]2C3)N1C(=O)C1CC1")
"≤ 100 nM"
>>> measured("COc1ccc(CO[C@H]2C[C@H](c3cc4c(C)nc5c(F)c(-c6cccc(Cl)c6Cl)c(CCC#N)cc5c4n3[C@H]3[C@H]4CN[C@@H]3C4)N(C(=O)C3CC3)C2)c(C#N)c1")
"≤ 100 nM"
>>> measured("Cc1nc2c(F)c(-c3cccc(Cl)c3Cl)c(CCC#N)cc2c2c1cc([C@H]1C[C@H](Oc3cnn(CC(F)F)c3)CN1C(=O)C1CC1)n2[C@H]1[C@H]2CN[C@@H]1C2")
"≤ 100 nM"

###

# target.or.test.system: KRAS G12V (Homo sapiens, UniProt P01116, G12V)
# experimental.protocol: GDP-GTP exchange assay (bodipy-GDP/GppNHp, SOS1), KRAS G12V
# Format: biochemical
# stated.conditions: KRAS G12V mutant; value for the most potent isomer quoted for certain compounds; read-out: G12V (KRAS G12V exchange assay IC50)
measure.name: IC50

>>> measured("COC(=O)N1C[C@@H](Oc2ccccn2)C[C@@H]1c1cc2c(-c3ccc(CN(C)C)c(F)c3F)nc3c(F)c(-c4cccc(Cl)c4Cl)c(CCC#N)cc3c2n1[C@H]1[C@H]2CN[C@@H]1C2")
"≤ 0.1 µM"
>>> measured("Cc1nc2c(F)c(-c3cccc(Cl)c3Cl)c(CCC#N)cc2c2c1cc([C@H]1C[C@H](Oc3cccc(C4CC4)c3)CN1C(=O)C1CC1)n2[C@H]1[C@H]2CN[C@@H]1C2")
"≤ 0.1 µM"
>>> measured("Cc1nc2c(F)c(-c3cccc(Cl)c3Cl)c(CCC#N)cc2c2c1cc([C@H]1C[C@H](n3ccnn3)CN1C(=O)C1CC1)n2[C@H]1[C@H]2CN[C@@H]1C2")
"≤ 0.1 µM"
>>> measured("Cc1ccnc(C)c1CO[C@H]1C[C@H](c2cc3c(C)nc4c(F)c(-c5cccc(Cl)c5Cl)c(CCC#N)cc4c3n2[C@H]2[C@H]3CN[C@@H]2C3)N(C(=O)C2(C)CC2)C1")
"≤ 0.1 µM"
>>> measured("COC1CN(c2cc(O[C@H]3C[C@H](c4cc5c(C)nc6c(F)c(-c7cccc(Cl)c7Cl)c(CCC#N)cc6c5n4[C@H]4[C@H]5CN[C@@H]4C5)N(C(=O)C4CC4)C3)ccn2)C1")
"≤ 0.1 µM"
>>> measured("Cc1nc2c(F)c(-c3cccc(Cl)c3Cl)c(CCC#N)cc2c2c1cc([C@H]1C[C@H](Oc3ccccc3OC(F)F)CN1C(=O)C1CC1)n2[C@H]1[C@H]2CN[C@@H]1C2")
"≤ 0.1 µM"
>>> measured("Cc1nc2cc(O[C@H]3C[C@H](c4cc5c(C)nc6c(F)c(-c7cccc(Cl)c7Cl)c(CCC#N)cc6c5n4[C@H]4[C@H]5CN[C@@H]4C5)N(C(=O)C4CC4)C3)ccc2s1")
"≤ 0.1 µM"
>>> measured("Cc1nc2c(F)c(-c3cccc(Cl)c3Cl)c(CCC#N)cc2c2c1cc([C@H]1C[C@H](Oc3ccnn3C)CN1C(=O)C1CC1)n2[C@H]1[C@H]2CN[C@@H]1C2")
"≤ 0.1 µM"
>>> measured("Cc1cnn([C@H]2C[C@H](c3cc4c(C)nc5c(F)c(-c6cccc(Cl)c6Cl)c(CCC#N)cc5c4n3[C@H]3[C@H]4CN[C@@H]3C4)N(C(=O)C3CC3)C2)n1")
"≤ 0.1 µM"
>>> measured("Cc1ccncc1O[C@H]1C[C@H](c2cc3c(C)nc4c(F)c(-c5cccc(Cl)c5Cl)c(CCC#N)cc4c3n2[C@H]2[C@H]3CN[C@@H]2C3)N(C(=O)C2CC2)C1")
"≤ 0.1 µM"
